# key: entry, value: Neutralization (Ave IC50 ug/ml)
system: HA of influenza B virus ca B/Ann Arbor/1/66 (influenza B virus B/Ann Arbor/1/66)
test: cell-based or functional assay
resultType: Neutralization (Ave IC50 ug/ml) (µg/mL)

{"columns": ["binder", "unitAbbrev", "recordedNumber"],
 "data": [
  ["FBD-56 (antibody, V domains shown) VH: EVQLVESGGHLVQPGRSLRLSCAASGFTFEDYAMNWVRQAPGKGLEWVSVISWDSGRIGYADSVKGRFTISRDNAKNSSYLQMNSLRPEDTALYYCVRDMLAYYSDNSGKKYNVYGMDVWGQGTTVTVSS VL: EIVLTQSPATLSLSPGERATLSCRASQSVSTFLAWYQQKPGQAPRLLMYDASNRATGIPARFSGSGSGTDFTLTISSLEPEDFAIYYCQQRSHWPPIFGQGTRLEIK", "µg/mL", 0.035],
  ["FBC-39 FTL (antibody, V domains shown) VH: EVQLVESGGGLVKPGGSLRLSCAASGFTFLNAWMSWVRQAPGKGLEWVGRIKSNTDGGTTDYAAPVKGRFTISRDDSKNTLYLQMSSLKTEDTAVYYCTTDGPYSDDFRSGYAARYRYFGMDVWGQGTTVTVSS VL: DIQMTQSPSSVSASVGDRVTITCRASQDISTWLAWYQQKPGKAPKLLIYAASSLQSGVPSRFSGSGSGTDFTLTISSLQPEDFATYYCQQANSFPPTFGQGTKLEIK", "µg/mL", 0.026],
  ["FBC-39 FSL (antibody, V domains shown) VH: EVQLVESGGGLVKPGGSLRLSCAASGFSFLNAWMSWVRQAPGKGLEWVGRIKSNTDGGTTDYAAPVKGRFTISRDDSKNTLYLQMSSLKTEDTAVYYCTTDGPYSDDFRSGYAARYRYFGMDVWGQGTTVTVSS VL: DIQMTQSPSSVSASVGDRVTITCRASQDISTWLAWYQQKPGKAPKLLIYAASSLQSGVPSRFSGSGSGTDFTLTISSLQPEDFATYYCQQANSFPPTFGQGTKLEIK", "µg/mL", 0.034]
]}
